target: hTfR1 (Homo sapiens, UniProt P02786); assay: Binding kinetics of anti-TfR1 antibodies on Carterra LSA, hTfR1; conditions: Carterra LSA at 25 C
Sequence (P02786 whole entry): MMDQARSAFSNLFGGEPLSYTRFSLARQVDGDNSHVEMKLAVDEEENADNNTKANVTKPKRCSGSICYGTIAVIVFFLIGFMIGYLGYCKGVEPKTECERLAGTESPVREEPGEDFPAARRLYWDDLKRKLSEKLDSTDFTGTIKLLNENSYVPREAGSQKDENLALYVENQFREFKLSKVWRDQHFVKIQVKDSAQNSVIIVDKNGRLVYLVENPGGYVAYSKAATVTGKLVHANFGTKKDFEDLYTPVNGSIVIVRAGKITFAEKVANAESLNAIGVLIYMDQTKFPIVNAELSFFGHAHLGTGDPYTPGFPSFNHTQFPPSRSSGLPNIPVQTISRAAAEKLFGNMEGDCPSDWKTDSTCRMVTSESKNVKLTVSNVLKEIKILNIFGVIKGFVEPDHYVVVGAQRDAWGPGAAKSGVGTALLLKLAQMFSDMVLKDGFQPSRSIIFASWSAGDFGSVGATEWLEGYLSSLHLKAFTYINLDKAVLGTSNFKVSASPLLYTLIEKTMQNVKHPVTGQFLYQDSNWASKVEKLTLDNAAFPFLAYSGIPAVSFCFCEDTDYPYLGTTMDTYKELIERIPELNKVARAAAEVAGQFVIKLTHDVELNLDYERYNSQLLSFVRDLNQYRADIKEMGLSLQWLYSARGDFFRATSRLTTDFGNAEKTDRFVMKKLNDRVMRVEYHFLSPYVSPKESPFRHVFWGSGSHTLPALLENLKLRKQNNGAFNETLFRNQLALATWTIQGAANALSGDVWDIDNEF
PROPERTY MEASURED: dissociation rate constant (koff) (µM)
Use µM as the unit, but write only the number.

3-M12 (antibody, V domains shown) VH: DVQLQESGPGLVKPSQSLSLTCSVTGYSITSGYYWNWIRQFPGNKLEWMGYITFDGANNYNPSLKNRISITRDTSKNQFFLKLTSVTTEDTATYYCTRSSYDYDVLDYWGQGTTLTVSS VL: DIQMTQTTSSLSASLGDRVTISCRASQDISNFLNWYQQRPDGTVKLLIYYTSRLHSGVPSRFSGSGSGTDFSLTVSNLEQEDIATYFCQQGHTLPYTFGGGTKLEIK ... 127

Sample 6-D03 (antibody, V domains shown) VH: QVQLQQPGAELVKPGASVKMSCKASGYTFTRHWITWVKQRPGQGLEWIGDIYPGSGRTNYNEKFKSTATLTVDTSSSTAYMQLSSLTSEDSAVYYCARDGYLYINYFDYWGQGTTLTVSS VL: ENVLTQSPAIMSASPGEKVTMTCSASSSVSFMHWFQQKSSTSPKLWIYDTSKLASGVPGRFSGSGSGSSYSLTISSMAAEDVATYYCFQGSGYPYTFGGGTKLEIK ; dissociation rate constant (koff) observed: 107

Record summary for 10-H02 (antibody, V domains shown) VH: EVQLVESGGDLVKPGGSLKLSCAASGFTFSDYGMHWVRQGPEKGLEWVAYINSGSSTIYYADTVKGRFTISRDNAKNTLFLQMTSLRSEDTAMYYCARPGDYDNYAMDYWGQGTSVTVSS VL: DIVMTQSHKFLSTSVGDRVSITCKASQDVSVAVAWYQQKPGQSPKLLIYWAYTRHTGVPDRFTGSGSGTEYTLTISSVQAEDLALYYCQQHYNTPPWTFGGGTKLEIK : reported dissociation rate constant (koff) = 342
